biological target: T1, Peptide F (monkey PAR-2), N-terminal biotinylated (Monkey (Macaca mulatta), N-terminal biotin via G4S linker); assay: peptide ELISA titration
T1 construct: also called Peptide F N-Term
T1 sequence (peptide, as listed by the source): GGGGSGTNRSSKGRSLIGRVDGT
measured.metric: pEC50
Scale explanation: pEC50 corresponds to minus log10 of a concentration expressed in moles per litre.

Note to self: pEC50 recorded for H4H584P (antibody, human IgG4, V domains shown, also called H1H584P variable regions) VH: QVQLVESGGGVVQPGRSLRLSCVASGFTFSRYGMHWVRQAPGKGLEWVVVISYDGINKYYADSVKGRFTISRDNSKNTVYLQMNSLRAEDTAVYYCAKGDFWSGYFDYWGQGTLVTVSS VL: DIVMTQTPLSSPVTLGQPASISCRSSQSLVHSDGNTYLSWLHQRPGQPPRLLIYKISNRFSGVPDRFSGSGAGTDFTLQISRVEAEDVGIYYCMQATQFPTFGGGTKVEIK was 10.92

Note to self: pEC50 recorded for H4H580P (antibody, human IgG4, V domains shown, also called H1H580P variable regions) VH: QVQLVESGGGVVQPGRSLRLSCVASGFTFSRYGMHWVRQAPGKGLEWVVVISYDGINKYYADSVKGRFTISRDNSKNTVYLQMNSLRAEDTAVYHCAKGDFWSGYFDYWGQGTLVTVSS VL: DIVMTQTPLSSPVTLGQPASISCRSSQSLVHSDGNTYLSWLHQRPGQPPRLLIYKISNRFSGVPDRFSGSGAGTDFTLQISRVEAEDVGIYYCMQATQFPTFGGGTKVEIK was 9.83

Note to self: pEC50 recorded for H4H579P (antibody, human IgG4, V domains shown, also called H1H579P variable regions) VH: QVQLVESGGGVVQPGRSLRLSCVASGFTFSRYGMHWVRQAPGKGLEWLIVISYDGINKYYADSVKGRFTISRDNSKNTVYLQMNSLRAEDTGVYYCAKGDFWSGYFDYWGQGTLVTVSS VL: DIVMTQTPLSSPVTLGQPASISCRSSQSLVHSDGNTYLSWLHQRPGQPPRLLIYKISNRFSGVPDRFSGSGAGTDFTLQISRVEAEDVGIYYCMQGTQFPTFGGGTKVEIK was 10.21

The reported measurements were obtained from patent US20110059095A1.
